From: paper PMC7281072

Each item that follows carries a reported LD50.
# EXPERIMENTAL_PROTOCOL: in vivo
# SETUP_CONDITIONS: both, CB17 SCID, mouse, ip
OBSERVATION_TYPE: LD50 (mg/kg)

>>> meas_value("C[C@]12CC[C@@H]3c4ccc(OC(=O)CCOc5ccc(N(CCCl)CCCl)cc5)cc4CC[C@H]3[C@@H]1CCC(=O)N2 [ENGA-L08E]")
95
>>> meas_value("NC(Cc1ccc(N(CCCl)CCCl)cc1)C(=O)O [L-PAM, reference compound]")
20.8

----------
# Test system: ERK1,2 phosphorylation
# EXPERIMENTAL_PROTOCOL: ERK1/2 phosphorylation ELISA, OVCAR-5 cells
# Type: cell-based, human
# SETUP_CONDITIONS: Homo sapiens, 0.5 h, 30 min, read-out: IC50, pERK 1/2 inhibition
pIC50: −log10 of the molar value.
OBSERVATION_TYPE: pIC50

>>> meas_value("C[C@]12CC[C@H]3[C@@H](CCC4=CC(=O)NCC[C@@]43C)[C@@H]1CC[C@@H]2OC(=O)CCOc1ccc(N(CCCl)CCCl)cc1 [ENGA-L06E]")
4.85
>>> meas_value("C[C@]12CC[C@@H]3c4ccc(OC(=O)CCOc5ccc(N(CCCl)CCCl)cc5)cc4CC[C@H]3[C@@H]1CCC(=O)N2 [ENGA-L08E]")
4.77

----------
# System: ERK1,2 phosphorylation
# EXPERIMENTAL_PROTOCOL: ERK1/2 phosphorylation ELISA, UWB1.289+BRCA1 cells
# Assay type: cell-based, human
# SETUP_CONDITIONS: Homo sapiens, 0.25 h, 15 min, read-out: IC50, pERK 1/2 inhibition
OBSERVATION_TYPE: IC50

>>> meas_value("C[C@]12CC[C@@H]3c4ccc(OC(=O)CCOc5ccc(N(CCCl)CCCl)cc5)cc4CC[C@H]3[C@@H]1CCC(=O)N2 [ENGA-L08E]")
"25 µM"
>>> meas_value("C[C@]12CC[C@H]3[C@@H](CCC4=CC(=O)NCC[C@@]43C)[C@@H]1CC[C@@H]2OC(=O)CCOc1ccc(N(CCCl)CCCl)cc1 [ENGA-L06E]")
"28.7 µM"

----------
# Tested on: AKT1,2 phosphorylation
# EXPERIMENTAL_PROTOCOL: AKT phosphorylation ELISA, UWB1.289 cells
# Type: cell-based, human
# SETUP_CONDITIONS: Homo sapiens, UWB1289, 0.5 h, 30 min, read-out: IC50, pAKT 1/2 inhibition
OBSERVATION_TYPE: IC50 (µM)

>>> meas_value("C[C@]12CC[C@@H]3c4ccc(OC(=O)CCOc5ccc(N(CCCl)CCCl)cc5)cc4CC[C@H]3[C@@H]1CCC(=O)N2 [ENGA-L08E]")
8.24
>>> meas_value("C[C@]12CC[C@H]3[C@@H](CCC4=CC(=O)NCC[C@@]43C)[C@@H]1CC[C@@H]2OC(=O)CCOc1ccc(N(CCCl)CCCl)cc1 [ENGA-L06E]")
14.4

----------
# Test system: AKT1,2 phosphorylation
# EXPERIMENTAL_PROTOCOL: AKT phosphorylation ELISA, UWB1.289 cells
# Type: cell-based, human
# SETUP_CONDITIONS: Homo sapiens, UWB1289, 1 h, 60 min, read-out: IC50, pAKT 1/2 inhibition
pIC50: −log10 of the molar value.
OBSERVATION_TYPE: pIC50

>>> meas_value("C[C@]12CC[C@H]3[C@@H](CCC4=CC(=O)NCC[C@@]43C)[C@@H]1CC[C@@H]2OC(=O)CCOc1ccc(N(CCCl)CCCl)cc1 [ENGA-L06E]")
4.93
>>> meas_value("C[C@]12CC[C@@H]3c4ccc(OC(=O)CCOc5ccc(N(CCCl)CCCl)cc5)cc4CC[C@H]3[C@@H]1CCC(=O)N2 [ENGA-L08E]")
5.18

----------
Each item that follows carries a reported IC50.
# System: AKT1,2 phosphorylation
# EXPERIMENTAL_PROTOCOL: AKT phosphorylation ELISA, OVCAR-5 cells
# Assay type: cell-based, human
# SETUP_CONDITIONS: Homo sapiens, 1 h, 60 min, read-out: IC50, pAKT 1/2 inhibition
OBSERVATION_TYPE: IC50 (µM)

>>> meas_value("C[C@]12CC[C@H]3[C@@H](CCC4=CC(=O)NCC[C@@]43C)[C@@H]1CC[C@@H]2OC(=O)CCOc1ccc(N(CCCl)CCCl)cc1 [ENGA-L06E]")
29.5
>>> meas_value("C[C@]12CC[C@@H]3c4ccc(OC(=O)CCOc5ccc(N(CCCl)CCCl)cc5)cc4CC[C@H]3[C@@H]1CCC(=O)N2 [ENGA-L08E]")
28.3
